// provenance: patent US20240034807A1

target: human mesothelin polypeptide (human) (UniProt Q13421); experiment: ELISA and SPR (Blitz) on a human mesothelin polypeptide
recorded_metric: EC50

[[record]]
binder = "Clone #8 VH domain (protein) VH: EVQLVESGGGVVQPGRSLRLSCAASGFTFSSYAMHWVRQAPGKGLEWIGSIRHDGNTYYNPSLKSRVSVSRDNAKNTLYLQMDSLRAEDTAMYYCAKYGCSSISCSFDYWGQGTLVTVSS"
experimental_value = "6.5 nM"

[[record]]
binder = "Clone #7 VH domain (protein) VH: EVQLVESGGGVVQPGRSLRLSCAASGFTFSSYAMHWVRQAPGKGLEWIGTIRYDGNTYYNPSLKSLVTISRDDSTNTLYLQMNSLRAEDTALYYCAKYGCSSTSCSFDYWGQGTLVTVSS"
experimental_value = "16.4 nM"

[[record]]
binder = "Clone #1 VH domain (protein) VH: EVQLVESGGGVVQPGRSLRLSCAASGFTFSSYAMHWVRQAPGKALEWIGSISYSGSTYYNPSLKSRVTVSRDNAKNTLYLQMDSLRAEDTAMYYCAKYYCSGGTCYYFDYWGQGTLVTVSS"
experimental_value = "1000 nM"

[[record]]
binder = "Clone #11 VH domain (protein) VH: EVQLVESGGGVVQPGRSLRLSCAASGFTFSSYAMHWVRQAPGKGLEWVSGITRSGGATFYAGSVKGRFTISRDDSTNTLYLQMNSLRAEDTAVYYCSRDPRRVDYWGQGTLVTVSS"
experimental_value = "98 nM"

